# target desc: melatonin receptor
# assay remarks: Inhibition of 2-[125I]iodomelatonin binding to chicken retinal membranes
# assay context: read-out: IC50, inhibition of 2-[125I]iodomelatonin binding to chicken retinal membranes; 0° C., 5 hr, in the dark
observation type: pIC50
Friendly reminder that pIC50 comes from taking -log10 of the concentration in mol/L.

Check out these entries, answers already filled in.
CCCC(=O)NC1CCc2cccc(OC)c2C1 (stereo not drawn): 6.59
CCCC(=O)NC1CCc2ccccc2C1 (stereo not drawn): 5.54
CCC(=O)NC1Cc2ccccc2C(c2ccccc2)C1 (stereo not drawn): 6.60
COc1cccc2c1CCC(NC(C)=O)C2 (stereo not drawn): 4.80

-- ask Report pIC50 for COc1cccc2c1CC(NC(=O)C1CC1)CC2 (stereo not drawn) please.
-- reply 5.53

-- ask Report pIC50 for CCC(=O)NC1Cc2ccccc2C(Cc2ccccc2)C1 (stereo not drawn) please.
-- reply 6.10

-- ask Report pIC50 for COc1cccc2c1CC(NC(=O)C(C)C)CC2 (stereo not drawn) please.
-- reply 5.34

-- ask Report pIC50 for CC(=O)NC1CCc2ccccc2C1 (stereo not drawn) please.
-- reply 4.70

-- ask Report pIC50 for CC(=O)NC1Cc2ccccc2C(c2ccccc2)C1 (stereo not drawn) please.
-- reply 6.20

-- ask Report pIC50 for CCC(=O)NC1CCc2ccccc2C1 (stereo not drawn) please.
-- reply 4.89

-- ask Report pIC50 for CC(=O)NC1Cc2ccccc2C(Cc2ccccc2)C1 (stereo not drawn) please.
-- reply 6.40

-- ask Report pIC50 for CC(=O)NC1CC(Cc2ccccc2)c2ccccc2C1=O (stereo not drawn) please.
-- reply 4.60
